Source of measurements: ChEMBL document CHEMBL1938276

Protocol text: Tmax in nude CD-1 mouse at 15 mg/kg, po by UPLC analysis
Type: ADME, organism-based
Set-up: dose 15 mg/kg, route oral
Condition info: in vivo
Measured attribute: Tmax (h)

{"Smiles notation": "COc1cc(Sc2c(-c3cc[nH]c3)[nH]c3ccccc23)cc(OC)c1OC", "Measured attribute": "Tmax", "Observed measurement": 2}

====

Protocol text: Cmax in nude CD-1 mouse at 15 mg/kg, po by UPLC analysis
Assay type: ADME, organism-based
Parameters: dose 15 mg/kg, route oral
Condition info: in vivo

{"Smiles notation": "COc1cc(Sc2c(-c3cc[nH]c3)[nH]c3ccccc23)cc(OC)c1OC", "Cmax / ng/mL": 1340}
